What IC50 was measured for each of the following?
# Test system: Candida albicans
# Protocol text: Antifungal activity against Candida albicans ATCC 90028 after 24 to 48 hrs by NCCLS method
# Format: functional, organism-based
Answers are plain numbers, in µg/mL.

Worked set:
Please give the measured IC50 for this compound: C[C@@H]1[C@H](O)[C@@H](C)/C=C/C=C/C=C/C=C/C=C/C=C/C=C/[C@H](O[C@@H]2O[C@H](C)[C@@H](O)[C@H](N)[C@@H]2O)C[C@@H]2O[C@](O)(C[C@@H](O)C[C@@H](O)[C@H](O)CC[C@@H](O)C[C@@H](O)CC(=O)O[C@H]1C)C[C@H](O)[C@H]2C(=O)O [AMPHOTERICIN B] 0.23

Any idea what its IC50 is? The compound is Nc1nc(=O)[nH]cc1F [FLUCYTOSINE] 0.47

Name the recorded IC50 for CCCCCCCCCCCC#CCCCCC(=O)O [6-OCTADECYNOIC ACID] . 0.38

Turning now to a further record.
Could you share which IC50 value was measured for CCCCCCCCCCCCC#CCCCCC(=O)O [6-NONADECYNOIC ACID] ? 0.33

====

# Test system: Candida albicans
# Protocol text: Antifungal activity against Candida albicans ATCC 90028 by sphingolipid reversal assay in presence of 5 ug/mL stearylamine
# Type: functional, organism-based
Field: IC50. Provide a value for each of the compounds that follow.
Give bare numbers, in µg/mL.

Known IC50 results, listed for orientation:
# get_value(readout='IC50', item= CCCCCCCCCCCC#CCCCCC(=O)O [6-OCTADECYNOIC ACID] ) 3.5

Entry Nc1nc(=O)[nH]cc1F [FLUCYTOSINE] has what IC50? 0.25

I would be grateful if you could share the reported IC50 for OC(Cn1cncn1)(Cn1cncn1)c1ccc(F)cc1F [FLUCONAZOLE] . 0.65

Now take the following compound into account.
For the compound shown here, CCCCCCCCCCCCC#CCCCCC(=O)O [6-NONADECYNOIC ACID] , give the reported IC50. 5
